Cited source: patent US9126941B2

# EXPERIMENTAL SYSTEM: AR (Homo sapiens, UniProt P10275)
# Sequence (P10275 whole entry, looked up): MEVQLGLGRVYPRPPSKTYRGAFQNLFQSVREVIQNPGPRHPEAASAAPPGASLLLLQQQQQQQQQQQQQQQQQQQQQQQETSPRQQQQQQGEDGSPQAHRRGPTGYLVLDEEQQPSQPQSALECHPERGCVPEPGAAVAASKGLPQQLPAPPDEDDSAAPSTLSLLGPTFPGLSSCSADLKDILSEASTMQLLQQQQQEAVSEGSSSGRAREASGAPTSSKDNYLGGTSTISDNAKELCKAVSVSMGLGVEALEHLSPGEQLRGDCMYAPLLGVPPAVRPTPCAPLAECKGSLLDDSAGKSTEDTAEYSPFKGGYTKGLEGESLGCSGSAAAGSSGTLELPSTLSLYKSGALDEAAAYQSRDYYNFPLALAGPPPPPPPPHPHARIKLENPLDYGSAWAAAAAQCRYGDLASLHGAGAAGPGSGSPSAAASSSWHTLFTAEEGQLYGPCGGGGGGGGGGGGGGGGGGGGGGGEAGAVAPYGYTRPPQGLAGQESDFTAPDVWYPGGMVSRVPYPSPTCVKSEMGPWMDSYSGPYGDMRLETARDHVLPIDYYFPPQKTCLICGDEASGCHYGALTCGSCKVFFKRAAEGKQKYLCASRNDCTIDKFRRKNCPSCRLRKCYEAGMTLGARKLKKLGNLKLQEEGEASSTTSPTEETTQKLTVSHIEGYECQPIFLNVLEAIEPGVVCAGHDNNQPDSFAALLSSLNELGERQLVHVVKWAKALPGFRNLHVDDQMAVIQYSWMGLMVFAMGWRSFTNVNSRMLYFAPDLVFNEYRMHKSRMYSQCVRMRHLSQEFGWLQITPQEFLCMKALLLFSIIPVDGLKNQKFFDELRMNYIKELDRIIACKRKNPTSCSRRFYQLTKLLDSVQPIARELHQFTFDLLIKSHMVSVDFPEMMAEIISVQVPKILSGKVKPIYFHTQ
# ASSAY INFO: cell-based
# Assay type: cell-based
MEASURE NAME: IC50 (nM)
Hi! Could you send only the number? It should be in nM, unit omitted.

COMPOUND | IC50 (nM)
CNC(=O)CCCc1ccc(N2C(=S)N(c3ccc(C#N)c(C(F)(F)F)c3)C(=O)C23CCC3)cc1 | 92
Cc1ccc(N2C(=S)N(c3ccc(C#N)c(C(F)(F)F)c3)C(=O)C2(C)CF)cc1 (centres unmarked) | 126
Cc1ccc(N2C(=S)N(c3ccc(C#N)c(C(F)(F)F)c3)C(=O)C23CCC3)cc1 | 124
N#Cc1ccc(N2C(=O)C3(CCC3)N(c3ccc(CCC(=O)NCCO)cc3)C2=S)cc1C(F)(F)F | 732
CC1(C)C(=S)N(c2ccc(C#N)c(C(F)(F)F)c2)C(=S)N1c1ccc(O)cc1 | 278
N#Cc1ccc(N2C(=O)C3(CCC3)N(c3ccc(N4CCNCC4)cc3)C2=S)cc1C(F)(F)F | 718
CS(=O)(=O)N1CCN(c2ccc(N3C(=S)N(c4ccc(C#N)c(C(F)(F)F)c4)C(=O)C34CCC4)cc2)CC1 | 138
CC1(C)C(=O)N(c2ccc(C#N)c(C(F)(F)F)c2)C(=S)N1c1ccc(N)cc1 | 273
N#Cc1ccc(N2C(=O)C3(CCC3)N(c3ccc(CCCC(N)=O)cc3)C2=S)cc1C(F)(F)F | 112
CC1(C)C(=O)N(c2ccc(C#N)c(C(F)(F)F)c2)C(=S)N1c1ccccc1C(=O)O | 523

Incoming: Return IC50 for the following compound: "CC1(C)C(=O)N(c2ccc(C#N)c(C(F)(F)F)c2)C(=S)N1c1ccc(OC(=O)CCl)cc1"
Outgoing: 131

Incoming: Please list IC50 recorded for the compound "Cc1ccnc(N2C(=S)N(c3ccc(C#N)c(C(F)(F)F)c3)C(=O)C2(C)C)c1"
Outgoing: 457

Incoming: Check the records and state IC50 for "CC1(C)C(=O)N(c2ccc(C#N)c(C(F)(F)F)c2)C(=S)N1c1ccccc1"
Outgoing: 149
